Recorded values, source ChEMBL document CHEMBL4184283.

So I've got a bunch of molecules here, and I need their Ratio IC50 values.
- EXPERIMENT: Selectivity ratio of IC50 for human A549-T24 cells over-expressing class-3 beta-tubulin to IC50 for human A549 cells
- Assay type: functional

Data point: `CC[C@]1(O)C[C@@H]2CN(CCc3c([nH]c4ccccc34)[C@@](C(=O)OC)(c3cc4c(cc3OC)N(C)[C@H]3[C@@](O)(C(=O)OC)[C@H](OC(C)=O)[C@]5(CC)C=CCN6CC[C@]43[C@@H]65)C2)C1` ; Ratio IC50 = <1

Data point: `CC[C@]1(NC(=O)c2ccc(C)c(C)c2)C[C@H]2CN(CCc3c([nH]c4ccc(F)cc34)[C@@](C(=O)OC)(c3cc4c(cc3OC)N(C)[C@H]3[C@@](O)(C(=O)OC)[C@H](OC(C)=O)[C@]5(CC)C=CCN6CC[C@]43[C@@H]65)C2)C1` ; Ratio IC50 = <1

Data point: `CC[C@]1(NC(=O)c2ccc3c(c2)CCCO3)C[C@H]2CN(CCc3c([nH]c4ccc(F)cc34)[C@@](C(=O)OC)(c3cc4c(cc3OC)N(C)[C@H]3[C@@](O)(C(=O)OC)[C@H](OC(C)=O)[C@]5(CC)C=CCN6CC[C@]43[C@@H]65)C2)C1` ; Ratio IC50 = <1

Data point: `CC[C@]1(NC(=O)N2Cc3ccccc3C2)C[C@H]2CN(CCc3c([nH]c4ccc(F)cc34)[C@@](C(=O)OC)(c3cc4c(cc3OC)N(C)[C@H]3[C@@](O)(C(=O)OC)[C@H](OC(C)=O)[C@]5(CC)C=CCN6CC[C@]43[C@@H]65)C2)C1` ; Ratio IC50 = 1
